Organism: Mus musculus
Experiment: Effective dose required to protect mice against convulsion induced electroshock was determined by MES test
Assay type: functional
endpoint.name: ED50 (mg/kg)
Reply with just the number (in mg/kg).

Completed entries (count: 2):
compound_smiles=Fc1ccccc1Oc1ccccc1-c1nnc(S)o1 endpoint_name=ED50 unit_symbol=mg/kg endpoint_result=43.1
compound_smiles=Nc1nnc(-c2ccccc2Oc2ccccc2F)o1 endpoint_name=ED50 unit_symbol=mg/kg endpoint_result=9.57

Consider `Fc1ccccc1Oc1ccccc1-c1n[nH]c(S)n1` . Its measured ED50 is 92
